- System: HEK-293T
- experiment.notes: Multiplex assay against HEK293T
- Assay type: toxicity, cell-based
- run.parameters: human, 12 h, 10 µM, compound concentration 10 uM, replicate 1
Consider the following molecules and their measured Population Fragmented Nuclei (%) readings.
measurement.kind: Population Fragmented Nuclei (%)

[[record]]
molecule = "COCCCN1CCC(NC(=O)c2cc(Cl)c(N)c3c2OCC3)CC1 [PRUCALOPRIDE]"
measurement_kind = "Population Fragmented Nuclei (%)"
value_unit = "%"
meas_value = 8

[[record]]
molecule = "Nc1nc(-c2ccco2)c2cnn(Cc3ccccc3F)c2n1"
measurement_kind = "Population Fragmented Nuclei (%)"
value_unit = "%"
meas_value = 7

[[record]]
molecule = "O=C(NCCNCC(O)COc1ccc(O)cc1)N1CCOCC1.O=C(NCCNCC(O)COc1ccc(O)cc1)N1CCOCC1.O=C(O)/C=C/C(=O)O (configuration not stated) [XAMOTEROL FUMARATE]"
measurement_kind = "Population Fragmented Nuclei (%)"
value_unit = "%"
meas_value = 7

[[record]]
molecule = "N[C@](CC1c2ccccc2Oc2ccccc21)(C(=O)O)[C@H]1C[C@@H]1C(=O)O"
measurement_kind = "Population Fragmented Nuclei (%)"
value_unit = "%"
meas_value = 9

[[record]]
molecule = "O=c1ccc2ccc(OCCCCN3CCN(c4cccc5sccc45)CC3)cc2[nH]1 [BREXPIPRAZOLE]"
measurement_kind = "Population Fragmented Nuclei (%)"
value_unit = "%"
meas_value = 17

[[record]]
molecule = "COc1cc(C(=O)N2CC[C@@H](O)[C@@H](N)C2)cc2nc(-c3cc4ccccc4n3CC3CC3)n(C)c12.Cl"
measurement_kind = "Population Fragmented Nuclei (%)"
value_unit = "%"
meas_value = 5

[[record]]
molecule = "COc1cc(OC2CCN(C(C)=O)CC2)ccc1C(=O)N1CCC(N2C(=O)OCc3ccccc32)CC1"
measurement_kind = "Population Fragmented Nuclei (%)"
value_unit = "%"
meas_value = 9

[[record]]
molecule = "CN(C)C/C=C/C(=O)Nc1ccc(C(=O)N2CCCC(Nc3ncc(Cl)c(-c4c[nH]c5ccccc45)n3)C2)cc1 (configuration not stated)"
measurement_kind = "Population Fragmented Nuclei (%)"
value_unit = "%"
meas_value = 12

[[record]]
molecule = "CN1CCN2c3ccccc3Cc3ccccc3C2C1.Cl (configuration not stated) [MIANSERIN HYDROCHLORIDE]"
measurement_kind = "Population Fragmented Nuclei (%)"
value_unit = "%"
meas_value = 5

[[record]]
molecule = "C=CCN1C[C@H](C(=O)N(CCCN(C)C)C(=O)NCC)C[C@@H]2c3cccc4[nH]cc(c34)C[C@H]21 [CABERGOLINE]"
measurement_kind = "Population Fragmented Nuclei (%)"
value_unit = "%"
meas_value = 8

[[record]]
molecule = "COc1cc2nc(N3CCN(C(=O)c4ccco4)CC3)nc(N)c2cc1OC.Cl [PRAZOSIN HYDROCHLORIDE]"
measurement_kind = "Population Fragmented Nuclei (%)"
value_unit = "%"
meas_value = 9

[[record]]
molecule = "COc1cc2nc(N3CCN(C(=O)COc4c(OC)cccc4C(C)C)CC3)nc(N)c2cc1OC.Cl.Cl"
measurement_kind = "Population Fragmented Nuclei (%)"
value_unit = "%"
meas_value = 13

[[record]]
molecule = "C[C@@H]1CC(=O)Nc2cccc(-c3ccc4c(c3)c(-c3cnn(C)c3)nn4C)c2N1"
measurement_kind = "Population Fragmented Nuclei (%)"
value_unit = "%"
meas_value = 8

[[record]]
molecule = "O=c1nc2[nH]c3ccccc3nc-2c(=O)[nH]1 [ALLOXAZINE]"
measurement_kind = "Population Fragmented Nuclei (%)"
value_unit = "%"
meas_value = 10

[[record]]
molecule = "CCn1c(-c2nc3cc(C(=O)N4CCCC(N)C4)ccc3n2C)cc2ccccc21.Cl (configuration not stated)"
measurement_kind = "Population Fragmented Nuclei (%)"
value_unit = "%"
meas_value = 8

[[record]]
molecule = "Cc1cc(-c2ccc3c(c2)CC[C@H]3N2CC3(CCN(C(=O)Cc4cn5cc(C)sc5n4)CC3)C2)ncn1 [PF-5190457]"
measurement_kind = "Population Fragmented Nuclei (%)"
value_unit = "%"
meas_value = 9

[[record]]
molecule = "CN(C)C(=O)Cn1cc(-c2ccc(-c3nnc4ccccn34)cc2)cn1"
measurement_kind = "Population Fragmented Nuclei (%)"
value_unit = "%"
meas_value = 9


----------
- System: U2OS
- experiment.notes: Multiplex assay against U2OS
- Type: toxicity, cell-based
- run.parameters: human, 24 h, 1 µM, compound concentration 1 uM, replicate 2
measurement.kind: Population Membrane Permeable-Phenotype (%)

[[record]]
molecule = "COc1ccc2c(c1OCc1ccccc1)C[C@@H](C(=O)O)N(C(=O)C(c1ccccc1)c1ccccc1)C2"
meas_value = 9

[[record]]
molecule = "CCc1nn2c(C)cc(C)nc2c1Cc1ccc(-c2nnc(C3CCNCC3)o2)cc1"
meas_value = 7

[[record]]
molecule = "Cc1cc(=O)n(C)c2cc(N3C(=O)CC[C@H](NS(=O)(=O)CC(C)C)[C@H]3c3ccc(Cl)cc3)ccc12"
meas_value = 9

[[record]]
molecule = "CCCCC[C@H](O)/C=C/[C@H]1[C@H](O)CC(=O)[C@@H]1CCCCCCC(=O)O"
meas_value = 8

[[record]]
molecule = "Cl.Cl.OCCOCCN1CCN(C(c2ccccc2)c2ccc(Cl)cc2)CC1 (configuration not stated) [HYDROXYZINE HYDROCHLORIDE]"
meas_value = 5

[[record]]
molecule = "C[C@@H]1CC(=O)Nc2cccc(-c3ccc4c(c3)c(-c3cnn(C)c3)nn4C)c2N1"
meas_value = 1

[[record]]
molecule = "COc1cc(OC2CCN(C(C)=O)CC2)ccc1C(=O)N1CCC(N2C(=O)OCc3ccccc32)CC1"
meas_value = 7

[[record]]
molecule = "Cc1c(Cc2ccc3ccccc3n2)c2cc(F)ccc2n1CC(=O)O"
meas_value = 7

[[record]]
molecule = "O=C(NCCNCC(O)COc1ccc(O)cc1)N1CCOCC1.O=C(NCCNCC(O)COc1ccc(O)cc1)N1CCOCC1.O=C(O)/C=C/C(=O)O (configuration not stated) [XAMOTEROL FUMARATE]"
meas_value = 10

[[record]]
molecule = "O=C(Nc1cc(-c2ccccc2)nn1-c1ccccc1F)c1ccc([N+](=O)[O-])cc1"
meas_value = 9

[[record]]
molecule = "O=c1nc2[nH]c3ccccc3nc-2c(=O)[nH]1"
meas_value = 5

[[record]]
molecule = "O=C(O)CCC/C=C\\CC1C(O)CC(O)C1/C=C/C(O)COc1cccc(Cl)c1 (configuration not stated)"
meas_value = 6

[[record]]
molecule = "CSc1nc(NC2CCCC2)c([N+](=O)[O-])c(NC2CCCC2)n1"
meas_value = 1

[[record]]
molecule = "CC(C)(O)C(=O)N1CCN(c2ccc(C(F)(F)F)c(C3=C(c4c[nH]c5ccccc45)C(=O)NC3=O)c2)CC1"
meas_value = 4

[[record]]
molecule = "COc1cc2nc(N3CCN(C(=O)COc4c(OC)cccc4C(C)C)CC3)nc(N)c2cc1OC.Cl.Cl"
meas_value = 10

[[record]]
molecule = "O=c1ccc2ccc(OCCCCN3CCN(c4cccc5sccc45)CC3)cc2[nH]1"
meas_value = 22

[[record]]
molecule = "S=C(NCCCc1c[nH]cn1)NCCCN(Cc1ccc(Cl)c(Cl)c1)c1ccc(Br)cn1"
meas_value = 7


----------
- System: U2OS
- experiment.notes: Multiplex assay against U2OS
- Assay type: toxicity, cell-based
- run.parameters: human, 24 h, 10 µM, compound concentration 10 uM, replicate 2
measurement.kind: Population Fragmented Nuclei (%)

[[record]]
compound = "Nc1nc(-c2ccco2)c2cnn(Cc3ccccc3F)c2n1"
meas_value = "19%"

[[record]]
compound = "COc1cc2nc(N3CCN(C(=O)COc4c(OC)cccc4C(C)C)CC3)nc(N)c2cc1OC.Cl.Cl"
meas_value = "20%"

[[record]]
compound = "CN1C[C@H](C(=O)N[C@]2(C)O[C@@]3(O)[C@@H]4CCCN4C(=O)[C@H](Cc4ccccc4)N3C2=O)C[C@@H]2c3cccc4[nH]cc(c34)C[C@H]21.CS(=O)(=O)O [DIHYDROERGOTAMINE MESYLATE]"
meas_value = "16%"

[[record]]
compound = "Cc1c(Cc2ccc3ccccc3n2)c2cc(F)ccc2n1CC(=O)O [TIMAPIPRANT]"
meas_value = "18%"


----------
Consider the following compounds and their measured Population Mitochondria Different-Phenotype (%) readings.
- System: HEK-293T
- experiment.notes: Multiplex assay against HEK293T
- Assay type: toxicity, cell-based
- run.parameters: human, 48 h, 1 µM, compound concentration 1 uM, replicate 1
Non-standard residues stand in square brackets, D forms with d. Residues, ends and D or L forms follow the SMILES beside them.
measurement.kind: Population Mitochondria Different-Phenotype (%)

[[record]]
compound = "CSc1nc(NC2CCCC2)c([N+](=O)[O-])c(NC2CCCC2)n1"
meas_value = "22%"

[[record]]
compound = "Cc1sc2c(c1C)C(c1ccc(Cl)cc1)=N[C@H](CC(=O)OC(C)(C)C)c1nnc(C)n1-2"
meas_value = "16%"

[[record]]
compound = "CC(C)C[C@@H]1NC(=O)[C@@H](C(C)C)NC(=O)[C@@H]2CCCN2C(=O)[C@@H](CC(=O)O)NC(=O)[C@@H](Cc2c[nH]c3ccccc23)NC1=O [BQ-123] (cyclo(L[dW][dD]P[dV]))"
meas_value = "22%"

[[record]]
compound = "Cc1nn(C)c2nc(NNC(=O)Nc3cc(Cl)nc(Cl)c3)cc(C(C)C)c12"
meas_value = "17%"

[[record]]
compound = "Nc1nc(-c2ccco2)c2cnn(Cc3ccccc3F)c2n1"
meas_value = "31%"

[[record]]
compound = "O=C(O)CCC/C=C\\CC1C(O)CC(O)C1/C=C/C(O)COc1cccc(Cl)c1 (stereo not drawn)"
meas_value = "15%"

[[record]]
compound = "N[C@](CC1c2ccccc2Oc2ccccc21)(C(=O)O)[C@H]1C[C@@H]1C(=O)O"
meas_value = "15%"

[[record]]
compound = "C[C@H](NC(=O)CNC(=O)c1cccc(Cl)c1)c1ccccc1"
meas_value = "15%"

[[record]]
compound = "Cn1cc(C(=O)OCC2CCN(CCNS(C)(=O)=O)CC2)c2ccccc21"
meas_value = "12%"

[[record]]
compound = "COc1cc(C(=O)N2CC[C@@H](O)[C@@H](N)C2)cc2nc(-c3cc4ccccc4n3CC3CC3)n(C)c12.Cl"
meas_value = "37%"

[[record]]
compound = "CCn1c(-c2nc3cc(C(=O)N4CCCC(N)C4)ccc3n2C)cc2ccccc21.Cl (stereo not drawn)"
meas_value = "28%"

[[record]]
compound = "Nc1nc(CC(=O)Nc2ccc(CCNC[C@H](O)c3ccccc3)cc2)cs1"
meas_value = "14%"

[[record]]
compound = "Cc1c(Cc2ccc3ccccc3n2)c2cc(F)ccc2n1CC(=O)O"
meas_value = "9%"

[[record]]
compound = "S=C(NCCCc1c[nH]cn1)NCCCN(Cc1ccc(Cl)c(Cl)c1)c1ccc(Br)cn1"
meas_value = "38%"

[[record]]
compound = "O=c1ccc2ccc(OCCCCN3CCN(c4cccc5sccc45)CC3)cc2[nH]1"
meas_value = "47%"

[[record]]
compound = "CC(C)(O)C(=O)N1CCN(c2ccc(C(F)(F)F)c(C3=C(c4c[nH]c5ccccc45)C(=O)NC3=O)c2)CC1"
meas_value = "21%"

[[record]]
compound = "CN(C)C(=O)Cn1cc(-c2ccc(-c3nnc4ccccn34)cc2)cn1"
meas_value = "20%"

[[record]]
compound = "CC(F)(F)CN1CCOc2c(nn(-c3ccccc3Cl)c2-c2ccc(Cl)cc2)C1=O"
meas_value = "14%"

